Below, each entry is listed with its recorded ACE (acetate).
Tested on: rumen fermentation (strained rumen fluid)
assay.name: Rumen in vitro model
Design: species or system steer
measurement.parameters: 50.00 ppm; 24 h

Below are worked cases with known answers.
* CCCCCCCCCC(=O)NC1C(Oc2c3cc4cc2Oc2c(Cl)cc(cc2Cl)C(O)C2NC(=O)C(NC(=O)C4NC(=O)C4NC(=O)C(NC(=O)C(NC)c5ccc(O)c(c5)Oc5cc(O)c(Cl)c4c5)C(O)c4ccc(c(Cl)c4)O3)c3ccc(O)c(c3)-c3c(OC4OC(CO)C(O)C(O)C4O)cc(O)cc3C(C(=O)O)NC2=O)OC(C(=O)O)C(O)C1O (stereo not shown) | 93 % of control
* CNC1C(=O)NC2C(=O)NC(C(=O)NC3C(=O)NC4C(=O)NC(C(=O)NC(C(=O)O)c5cc(O)cc(OC6OC(CO)C(O)C(O)C6O)c5-c5cc4ccc5O)C(O)c4cc(Cl)c(c(Cl)c4)Oc4cc3cc(c4OC3OC(C(=O)O)C(O)C(O)C3NC(=O)CCCCCCCC(C)C)Oc3ccc(cc3Cl)C2O)c2cc(cc(O)c2Cl)Oc2cc1ccc2O (stereo not shown) | 103 % of control
* CC[C@@]1([C@@H]2O[C@@H]([C@H]3O[C@@](O)(CO)[C@H](C)C[C@@H]3C)C[C@@H]2C)CC[C@H]([C@]2(C)CC[C@]3(C[C@H](O)[C@@H](C)[C@@H]([C@@H](C)[C@@H](OC)[C@H](C)C(=O)O)O3)O2)O1 | 96 % of control

--- query ---
Field request: ACE (acetate) | item: CNC1C(=O)NC2C(=O)NC(C(=O)NC3C(=O)NC4C(=O)NC(C(=O)NC(C(=O)O)c5cc(O)cc(OC6OC(CO)C(O)C(O)C6O)c5-c5cc4ccc5O)C(O)c4cc(Cl)c(c(Cl)c4)Oc4cc3cc(c4OC3OC(C(=O)O)C(O)C(O)C3NC(=O)CCCCCCCCC(C)C)Oc3ccc(cc3Cl)C2O)c2cc(cc(O)c2Cl)Oc2cc1ccc2O (stereo not shown) 98 % of control
